Here, each record is paired with measured Human GLP-1 R activity (cAMP release), % activity with respect to control data.
target: Human GLP-1 receptor (Homo sapiens, UniProt P43220); construct: The full-length cDNA was cloned in pcDNA3.1(+); expressed in transfected cells; type: cell-based; conditions: 1 nM test compound
Sequence (P43220 24-463): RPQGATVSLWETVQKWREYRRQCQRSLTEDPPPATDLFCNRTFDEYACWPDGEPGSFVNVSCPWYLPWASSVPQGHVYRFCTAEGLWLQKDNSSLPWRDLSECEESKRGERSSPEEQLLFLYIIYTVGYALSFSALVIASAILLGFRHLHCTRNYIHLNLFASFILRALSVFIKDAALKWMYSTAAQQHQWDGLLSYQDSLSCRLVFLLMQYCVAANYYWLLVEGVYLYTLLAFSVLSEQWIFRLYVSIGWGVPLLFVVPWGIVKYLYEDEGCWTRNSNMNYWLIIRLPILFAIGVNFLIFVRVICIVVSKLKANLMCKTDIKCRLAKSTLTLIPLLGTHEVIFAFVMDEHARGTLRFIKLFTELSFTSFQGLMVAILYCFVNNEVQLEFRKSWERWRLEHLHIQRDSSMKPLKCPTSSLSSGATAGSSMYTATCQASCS
Could you give me the number in %? Just the number is fine.

Solved cases below.
CCc1cc(OC)ccc1-c1ccc(CC(NC(=O)[C@H](CC(=O)O)NC(=O)[C@H](CO)NC(=O)[C@@H](NC(=O)C(C)(Cc2ccccc2F)NC(=O)[C@@H](NC(=O)CNC(=O)[C@H](CCC(N)=O)NC(=O)C(C)(C)NC(=O)[C@@H](N)Cc2c[nH]cn2)[C@@H](C)O)[C@@H](C)O)C(=O)NC(Cc2ccc(-c3ccccc3C)cc2)C(N)=O)cc1 (single isomer, unassigned) ... 99
CCc1cc(OC)ccc1-c1ccc(CC(NC(=O)[C@H](CC(=O)O)NC(=O)[C@H](CO)NC(=O)[C@@H](NC(=O)C(C)(Cc2ccccc2F)NC(=O)[C@@H](NC(=O)CNC(=O)[C@H](CCC(N)=O)NC(=O)C(C)(C)NC(=O)[C@@H](N)Cc2c[nH]cn2)[C@@H](C)O)[C@@H](C)O)C(=O)NC(Cc2ccc(-c3ccccc3F)cc2)C(N)=O)cc1 (single isomer, unassigned) ... 93

Now take the following compound into account.
// returns reported Human GLP-1 R activity (cAMP release), % activity with respect to control for input CCc1cc(OC)ccc1-c1ccc(CC(NC(=O)[C@H](CC(=O)O)NC(=O)[C@H](CO)NC(=O)[C@@H](NC(=O)C(C)(Cc2ccccc2F)NC(=O)[C@@H](NC(=O)CNC(=O)[C@H](CCC(N)=O)NC(=O)C(C)(C)NC(=O)[C@@H](N)Cc2c[nH]cn2)[C@@H](C)O)[C@@H](C)O)C(=O)NC(Cc2ccc(-c3ccccc3C(F)(F)F)cc2)C(N)=O)cc1 (single isomer, unassigned)
99

* * *

Molecular target: Human GLP-1 receptor (Homo sapiens)
Construct: The full-length cDNA was cloned in pcDNA3.1(+); expressed in transfected cells
Assay type: cell-based
Details: 1 nM test compound
Method: The novel peptidomimetics were screened for Human GLP-1 receptor (HGLP-1 R) agonist activity (in vitro), using the cAMP cell-based assay, in stably transfected CHO/human GLP1R cells. […] The trypsin was inactivated using Ham's F12 medium containing 10% NBCS and the cells were suspended in 2 ml of complete medium. […] Data is calculated as percent of control (Vehicle: water) and expressed as Mean±SD.
Please assign FALSE whenever Human GLP-1 R activity (cAMP release), % activity with respect to control is at or above 70%, and TRUE whenever it is below.

Solved cases below.
CCc1cc(OC)ccc1-c1ccc(CC(NC(=O)[C@H](CC(=O)O)NC(=O)[C@H](CO)NC(=O)[C@@H](NC(=O)[C@H](Cc2ccccc2)NC(=O)[C@@H](NC(=O)CNC(=O)[C@H](CCC(N)=O)NC(=O)C(C)(C)NC(=O)[C@@H](N)Cc2c[nH]cn2)[C@@H](C)O)[C@@H](C)O)C(=O)NC(Cc2ccc(-c3ccccc3C)nc2)C(N)=O)cc1 (single isomer, unassigned) [compound 14] ... TRUE
CCc1cc(OC)ccc1-c1ccc(CC(NC(=O)[C@H](CC(=O)O)NC(=O)[C@H](CO)NC(=O)[C@@H](NC(=O)[C@H](Cc2ccccc2)NC(=O)[C@@H](NC(=O)CNC(=O)[C@H](CCC(N)=O)NC(=O)C2(NC(=O)[C@@H](N)Cc3c[nH]cn3)CC2)[C@@H](C)O)[C@@H](C)O)C(=O)NC(Cc2ccc(-c3ccccc3C(F)(F)F)cc2)C(N)=O)cc1 (single isomer, unassigned) [compound 20] ... FALSE

Here's an entry: CCc1cc(OC)ccc1-c1ccc(CC(NC(=O)[C@H](CC(=O)O)NC(=O)[C@H](CO)NC(=O)[C@@H](NC(=O)C(C)(Cc2ccccc2F)NC(=O)[C@@H](NC(=O)CNC(=O)[C@H](CCC(N)=O)NC(=O)C2(NC(=O)[C@@H](N)Cc3c[nH]cn3)CC2)[C@@H](C)O)[C@@H](C)O)C(=O)NC(Cc2ccc(-c3ccccc3F)cc2)C(N)=O)cc1 (single isomer, unassigned) [compound 35] . Is its Human GLP-1 R activity (cAMP release), % activity with respect to control below 70%?
FALSE

Hello, is Human GLP-1 R activity (cAMP release), % activity with respect to control of the following molecule strictly smaller than 70%? CCc1cc(OC)ccc1-c1ccc(CC(NC(=O)[C@H](CC(=O)O)NC(=O)[C@H](CO)NC(=O)[C@@H](NC(=O)[C@H](Cc2ccccc2)NC(=O)[C@@H](NC(=O)CNC(=O)[C@H](CCC(N)=O)NC(=O)C2(NC(=O)[C@@H](N)Cc3c[nH]cn3)CC2)[C@@H](C)O)[C@@H](C)O)C(=O)NC(Cc2ccc(-c3ccccc3C)cc2)C(N)=O)cc1 (single isomer, unassigned) [compound 17]
FALSE
